Just for reference, patent US20220064329A1 is where these values come from.

Can you tell me pKd for the items I'm about to list?
assayTarget: T1, recombinant human activated Factor VII (FVIIa) (human, UniProt P08709 61-212; P08709 213-466, ten glutamate residues of the Gla domain may be gamma-carboxylated)
T1 construct: chains tethered by a disulfide bond; also called Factor VIIa; rFVIIa
T1 sequence 1: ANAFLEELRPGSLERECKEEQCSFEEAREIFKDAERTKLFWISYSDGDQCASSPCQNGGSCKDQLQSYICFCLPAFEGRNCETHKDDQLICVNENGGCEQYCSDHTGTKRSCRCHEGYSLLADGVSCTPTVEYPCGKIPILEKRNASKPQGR
T1 sequence 2: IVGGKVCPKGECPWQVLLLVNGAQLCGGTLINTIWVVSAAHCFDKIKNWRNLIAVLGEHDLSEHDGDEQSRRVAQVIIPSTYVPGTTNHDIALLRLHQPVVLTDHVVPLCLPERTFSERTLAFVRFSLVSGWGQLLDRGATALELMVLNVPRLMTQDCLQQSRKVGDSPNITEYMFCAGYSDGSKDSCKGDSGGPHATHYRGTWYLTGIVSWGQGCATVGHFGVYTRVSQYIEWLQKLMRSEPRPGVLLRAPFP
testDetails: BLI (Fortebio)
Answers are plain numbers, as −log10 of the molar value.

Some binders with known pKd results, for comparison:
VH SEQ ID NO 314 / VL SEQ ID NO 494 (antibody, IgG4, V domains shown, humanized 11F2; IgG4 S228P/kappa) VH: QVQLQESGPGLVEPSDTLSLTCAVSGYSISSDSAWSWIRQPPGKGLEWIGYIQYSGSTNYNPSLKSRVTMSVDTSKNQFSLKLSSVTALDTAVYYCARSVNYYGNSFAVGPWGQGTLVTVSS VL: EIVLTQSPATLSLSPGERATLSCRASQGVSDYLHWYQQKPGQAPRLLIKYASQPATGIPARFSGSGSGTDFTLTISSLEPEDVAVYYCQNGHSFPLTFGQGTKLEIK | 7.55
VH SEQ ID NO 602 / VL SEQ ID NO 486 (antibody, IgG4, V domains shown, humanized 11F2; IgG4 S228P/kappa) VH: QVQLQESGPGLVKPSQTLSLTCTVSGGSISSDSAWSWIRQPPGKGLEWIGYIQYSGSTNYNPSLKSRVTISVDTSKNQFSLKLSSVTAADTAVYYCARSVNYYGNSFAVGYWGQGTLVTVSS VL: EIVLTQSPATLSLSPGERATLSCRASQGVSDYLHWYQQKPGQAPRLLIKYASQPATGIPARFSGSGSGTDFTLTISSLEPEDFGVYYCQNGHSFPLTFGQGTKLEIK | 7.82
VH SEQ ID NO 626 / VL SEQ ID NO 446 (antibody, IgG4, V domains shown, humanized 11F2; IgG4 S228P/kappa) VH: QVQLQESGPGLVKPSQTLSLTCTVSGYSISSDSAWSWIRQPPGKGLEWIGYIQYSGSTNYNPSLKSRVTISRDTSKNQFSLKLSSVTAADTAVYYCARSVNYYGNSFAVGPWGQGTLVTVSS VL: EIVLTQSPATLSLSPGERATLSCRASQGVSDYLAWYQQKPGQAPRLLIKYTSQPATGIPARFSGSGSGTDFTLTISSLEPEDFAVYYCQNGHSFPLTFGQGTKLEIK | 6.06
VH SEQ ID NO 650 / VL SEQ ID NO 462 (antibody, IgG4, V domains shown, humanized 11F2; IgG4 S228P/kappa) VH: QVQLQESGPGLVKPSQTLSLTCTVSGYSISSDSAWSWIRQPPGKKLEWIGYIQYSGSTNYNPSLKSRVTISRDTSKNQFSLKLSSVTAADTAVYYCARSVNYYGNSFAVGPWGQGTLVTVSS VL: EIVLTQSPATLSLSPGERATLSCRASQGVSDYLHWYQQKPGQAPRLLIKYASQPATGIPARFSGSGSGTDFTLTISSLEPEDFAVYYCQNGHSFPLTFGAGTKLEIK | 8.80
VH SEQ ID NO 546 / VL SEQ ID NO 446 (antibody, IgG4, V domains shown, humanized 11F2; IgG4 S228P/kappa) VH: QVQLQESGPGLVEPSQTLSLTCTVSGYSITSDSAWSWIRQPPGKKLEWIGYIQYSGSTNYNPSLKSRVTISRDTSKNQFSLKLSSVTAADTAVYYCARSVNYYGNSFAVGYWGQGTSVTVSS VL: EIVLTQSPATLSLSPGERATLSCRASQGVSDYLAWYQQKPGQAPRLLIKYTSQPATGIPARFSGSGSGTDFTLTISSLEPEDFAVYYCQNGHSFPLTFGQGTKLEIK | 8.00
VH SEQ ID NO 570 / VL SEQ ID NO 406 (antibody, IgG4, V domains shown, humanized 11F2; IgG4 S228P/kappa) VH: QVQLQESGPGLVKPSDTLSLTCAVSGYSISSDSAWSWIRQPPGKGLEWIGYIQYSGSTNYNPSLKSRVTMSRDTSKNQFSLKLSSVTAADTAVYYCARSVNYYGNSFAVGPWGQGTLVTVSS VL: EIVLTQSPATLSLSPGERATLSCRASQGVSDYLAWYQQKPGQAPRLLIKYASQPATGIPARFSGSGSGTDFTLTISSLEPEDFAVYYCQNGHSFPLTFGAGTKLEIK | 7.70

Provide the reported pKd of each entry below, same order.
1. VH SEQ ID NO 634 / VL SEQ ID NO 438 (antibody, IgG4, V domains shown, humanized 11F2; IgG4 S228P/kappa) VH: QVQLQESGPGLVKPSQTLSLTCTVSGYSISSDSAWSWIRQPPGKGLEWIGYIQYSGSTNYNPSLKSRVTISRDTSKNQFSLKLSSVTAADTAVYYCARSVNYYGNSFAVGYWGQGTLVTVSS VL: EIVLTQSPATLSLSPGERATLSCRASQGVSDYLAWYQQKPGQAPRLLIKYASQPATGIPARFSGSGSGTDFTLTISSLEPEDVAVYYCQNGHSFPLTFGQGTKLEIK
2. VH SEQ ID NO 634 / VL SEQ ID NO 326 (antibody, IgG4, V domains shown, humanized 11F2; IgG4 S228P/kappa) VH: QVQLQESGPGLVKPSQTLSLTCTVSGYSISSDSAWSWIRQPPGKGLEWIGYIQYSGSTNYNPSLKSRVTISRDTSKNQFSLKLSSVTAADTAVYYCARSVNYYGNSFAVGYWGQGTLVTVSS VL: EIVLTQSPATLSLSPGERATLSCRASQGISDYLHWYQQKPGEAPRLLIKYTSQPATGIPARFSGSGSGTDFTLTISSLEPEDFGVYYCQNGHSFPLTFGAGTKLELK
3. VH SEQ ID NO 634 / VL SEQ ID NO 366 (antibody, IgG4, V domains shown, humanized 11F2; IgG4 S228P/kappa) VH: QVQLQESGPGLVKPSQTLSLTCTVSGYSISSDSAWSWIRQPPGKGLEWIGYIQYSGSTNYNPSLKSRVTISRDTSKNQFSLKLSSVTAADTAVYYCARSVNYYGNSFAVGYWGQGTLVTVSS VL: EIVLTQSPATLSLSPGERATLSCRASQGLSDYLAWYQQKPGEAPRLLIKYASQPATGIPARFSGSGSGTDFTLTISSLEPEDFAVYYCQNGHSFPLTFGQGTKLEIK
4. VH SEQ ID NO 538 / VL SEQ ID NO 502 (antibody, IgG4, V domains shown, humanized 11F2; IgG4 S228P/kappa) VH: QVQLQESGPGLVEPSQTLSLTCTVSGYSITSDSAWSWIRQPPGKKLEWIGYIQYSGSTNYNPSLKSRVTISRDTSKNQFSLKLSSVTAADTAVYYCARSVNYYGNSFAVGYWGQGTLVTVSS VL: EIVLTQSPATLSLSPGERATLSCRASQGVSDYLHWYQQKPGQAPRLLIKYTSQPATGIPARFSGSGSGTDFTLTISSLEPEDFAVYYCQNGHSFPLTFGQGTKLEIK

1. 8.32
2. 9.05
3. 8.51
4. 9.06
